Assay: Mouse Writhing Inhibition Assay
Type: in vivo, Cox standard strain albino male mice
Measurement Context: oral gavage 60 min before acetic acid 55 mg./kg. i.p., active = less than ten writhes, read-out: Minimum active oral dose, Mouse Writhing
Measure: log10 minimal effective dose (log10 of the value in mg/kg)
All values: base-10 log of minimal effective dose in mg/kg.

Field: example entries. Status: answers known.
Compound	Result
Cc1ccc(-c2nnc(N3CCC(O)C3)nc2-c2ccc(C)cc2)cc1 (centres unmarked)	2.30
Cc1ccc(-c2nnc(N3CCC(OS(C)(=O)=O)CC3)nc2-c2ccc(C)cc2)cc1	-0.40
CCC(=O)OC1CCN(c2nnc(-c3ccc(C)cc3)c(-c3ccc(C)cc3)n2)CC1	1.10
Cc1ccc(-c2nnc(N3CCC(O)CC3)nc2-c2ccc(C)cc2)cc1	0.49
Cc1ccc(-c2nnc(N3CCCCC3)nc2-c2ccc(C)cc2)cc1	1.10

// query Identify measured log10 minimal effective dose associated with Cc1ccc(-c2nnc(N3CCC(OC(N)=O)CC3)nc2-c2ccc(C)cc2)cc1
// result 0.19

// query Quickly give me recorded log10 minimal effective dose for Cc1ccc(-c2ncc(N3CCC(O)CC3)nc2-c2ccc(C)cc2)cc1
// result 1.10

// query Retrieve log10 minimal effective dose measured for COC1CCN(c2nnc(-c3ccc(C)cc3)c(-c3ccc(C)cc3)n2)CC1 and print it.
// result 0.79

----------
Measured minimal effective dose values are reported for all entries that follow.
Assay: Mouse Writhing Inhibition Assay
Format: in vivo, Cox standard strain albino male mice
Measurement Context: oral gavage 60 min before acetic acid 55 mg./kg. i.p., active = less than ten writhes, read-out: Minimum active oral dose, Mouse Writhing
State the answer as a number, implicitly in mg/kg.

Known minimal effective dose results, listed for orientation:
Molecule	Units Text	minimal effective dose
Cc1ccc(-c2nnc(N3CCCC(O)C3)nc2-c2ccc(C)cc2)cc1 (stereo not drawn)	mg/kg	12.5
Cc1ccc(-c2nnc(N3CCC(=O)CC3)nc2-c2ccc(C)cc2)cc1	mg/kg	50
CC(=O)OC1CCN(c2nnc(-c3ccc(C)cc3)c(-c3ccc(C)cc3)n2)CC1	mg/kg	12.5

// query Quick one: give measured minimal effective dose for CC(=O)OC1CCN(c2cnc(-c3ccc(C)cc3)c(-c3ccc(C)cc3)n2)CC1
// result 100

----------
Assayed System: GABA receptor
Assay: In vitro activation of GABA binding ([3H]GABA, Triton X-100 treated membrane protein)
Measurement Context: average of one or more tests, read-out: SC50 GABA (nanomolar concentration producing a 50% increase in binding)
pEC50: −log10 of the molar value.
Classification field: enter TRUE for pEC50 values not below 7, FALSE for values below it.

Completed entries (count: 3):
Smiles Data	Qualitative Label
Cc1ccc(-c2nnc(N3CCC(=NO)CC3)nc2-c2ccc(C)cc2)cc1	FALSE
Cc1ccc(-c2nnc(N3CCC(OC(N)=O)CC3)nc2-c2ccc(C)cc2)cc1	TRUE
Cc1ccc(-c2nnc(N3CCC(C(N)=O)CC3)nc2-c2ccc(C)cc2)cc1	FALSE

// query Please indicate if the recorded pEC50 for Cc1ccc(-c2nnc(N3CCC4(CC3)OCCO4)nc2-c2ccc(C)cc2)cc1 meets or exceeds 7.
// result FALSE

----------
EC50 for assorted compounds
Assayed System: benzodiazepine receptor
Assay: In vitro activation of benzodiazepine (BZ) binding (flunirazepam, native membrane protein)
Measurement Context: average of one or more tests, read-out: SC50 BZ (nanomolar concentration producing a 50% increase in binding)
State just the number; it will be interpreted in nM.

Solved cases (5 shown):
Compound	Units Text	EC50
CC(=O)OC1CCN(c2nnc(-c3ccc(C)cc3)c(-c3ccc(C)cc3)n2)CC1	nM	5.5
Cc1ccc(-c2nnc(N3CCCCC3)nc2-c2ccc(C)cc2)cc1	nM	515
Cc1ccc(-c2nnc(N3CCC(=NO)CC3)nc2-c2ccc(C)cc2)cc1	nM	1600
Cc1ccc(-c2nnc(N3CCCC(O)C3)nc2-c2ccc(C)cc2)cc1 (centres unmarked)	nM	700
Cc1ccc(-c2nnc(N3CCC(OC(=O)N(C)C)CC3)nc2-c2ccc(C)cc2)cc1	nM	3

// query Determine from records and report EC50 for Cc1ccc(-c2nnc(N3CCC(CO)CC3)nc2-c2ccc(C)cc2)cc1
// result 520

// query Read off the recorded EC50 for CCC(=O)OC1CCN(c2nnc(-c3ccc(C)cc3)c(-c3ccc(C)cc3)n2)CC1
// result 19

// query // Input: Cc1ccc(-c2nnc(N3CCC(OC(=O)c4ccccc4)CC3)nc2-c2ccc(C)cc2)cc1 . Output its EC50 only.
// result 1000

----------
Assay: Metrazole Induced Convulsion Inhibition Assay
Format: in vivo, Cox standard strain albino male mice
Measurement Context: Mus musculus; oral gavage, 1 h before metrazole 110 mg./kg. i.p.; active = total score of 6 or less (3 mice, range 0-12); read-out: Minimum active oral dose, Metrazole
Measure: minimal effective dose (mg/kg)
Numbers only; they are read as mg/kg.

Molecule	Units Text	minimal effective dose
COC1CCN(c2nnc(-c3ccc(C)cc3)c(-c3ccc(C)cc3)n2)CC1	mg/kg	6.2

// query Return reported minimal effective dose. Input molecule: Cc1ccc(-c2nnc(N3CCC(=O)CC3)nc2-c2ccc(C)cc2)cc1
// result 50

// query Supply recorded minimal effective dose for CC(=O)OC1CCN(c2nnc(-c3ccc(C)cc3)c(-c3ccc(C)cc3)n2)CC1 here.
// result 6.25

// query Supply reported minimal effective dose belonging to this molecule: Cc1ccc(-c2nnc(N3CCC(O)CC3)nc2-c2ccc(C)cc2)cc1
// result 3.1

// query Annotate the molecule OC1CCN(c2nnc(-c3ccc(Cl)cc3)c(-c3ccc(Cl)cc3)n2)CC1 with its measured minimal effective dose.
// result 12.5

// query Look up and state reported minimal effective dose for Cc1ccc(-c2nnc(N3CCCCC3)nc2-c2ccc(C)cc2)cc1
// result 12.5

----------
Entries annotated with measured pEC50
Assayed System: GABA receptor
Assay: In vitro activation of GABA binding ([3H]GABA, Triton X-100 treated membrane protein)
Measurement Context: average of one or more tests, read-out: SC50 GABA (nanomolar concentration producing a 50% increase in binding)
A value of pEC50 is the negative decimal logarithm of a concentration given in moles per litre.

Answered cases to consult:
Compound	Assayed System	pEC50
Cc1ccc(-c2nnc(N3CCCCC3)nc2-c2ccc(C)cc2)cc1	GABA receptor	5.28
CNC(=O)OC1CCN(c2nnc(-c3ccc(C)cc3)c(-c3ccc(C)cc3)n2)CC1	GABA receptor	7.00
CCOC(=O)C1CCN(c2nnc(-c3ccc(C)cc3)c(-c3ccc(C)cc3)n2)CC1	GABA receptor	7.92
Cc1ccc(-c2nnc(N3CCC(OC(=O)Oc4ccccc4)CC3)nc2-c2ccc(C)cc2)cc1	GABA receptor	6.80
Cc1ccc(-c2nnc(N3CCC(OC(=O)N(C)C)CC3)nc2-c2ccc(C)cc2)cc1	GABA receptor	9.00

Now consider a different compound.
// query Kindly indicate its recorded pEC50. Item: CC(=O)OC1CCN(c2nnc(-c3ccc(C)cc3)c(-c3ccc(C)cc3)n2)CC1
// result 8.48

----------
The following compounds are shown together with reported EC50 values.
Assayed System: benzodiazepine receptor
Assay: In vitro activation of benzodiazepine (BZ) binding (flunirazepam, native membrane protein)
Measurement Context: average of one or more tests, read-out: SC50 BZ (nanomolar concentration producing a 50% increase in binding)
Number in nM, nothing else.

These recorded examples may help you get a feel for the data.
Compound	Units Text	EC50
CC(=O)OC1CCCN(c2nnc(-c3ccc(C)cc3)c(-c3ccc(C)cc3)n2)C1 (centres unmarked)	nM	180
Cc1ccc(-c2nnc(N3CCC(OC(=O)Oc4ccccc4)CC3)nc2-c2ccc(C)cc2)cc1	nM	650
Cc1ccc(-c2nnc(N3CCC(OS(C)(=O)=O)CC3)nc2-c2ccc(C)cc2)cc1	nM	6
Cc1ccc(-c2nnc(N3CCOCC3)nc2-c2ccc(C)cc2)cc1	nM	1140
CC(=O)OC1CCN(c2nnc(-c3ccc(Cl)cc3)c(-c3ccc(Cl)cc3)n2)CC1	nM	12
Cc1ccc(-c2nnc(N3CCC(OC(N)=O)CC3)nc2-c2ccc(C)cc2)cc1	nM	15

// query Could you please provide reported EC50 for Cc1ccc(-c2nnc(N3CCC(OC=O)CC3)nc2-c2ccc(C)cc2)cc1 ? Thanks!
// result 10

----------
Assayed System: GABA receptor
Assay: In vitro activation of GABA binding ([3H]GABA, Triton X-100 treated membrane protein)
Measurement Context: average of one or more tests, read-out: SC50 GABA (nanomolar concentration producing a 50% increase in binding)
pEC50: −log10 of the molar value.
1 means recorded pEC50 is 7 or above; -1 means it is below 7.

// query # check: pEC50 of Cc1ccc(-c2nnc(N3CCC(=O)CC3)nc2-c2ccc(C)cc2)cc1 [Example 39] is greater than or equal to 7
// result -1

// query Is reported pEC50 greater than or equal to 7 here: CCc1ccc(-c2nnc(N3CCC(O)CC3)nc2-c2ccc(CC)cc2)cc1 [Example 8]
// result -1

// query Dear colleague, could you confirm whether Cc1ccc(-c2nnc(N3CCC(OC(=O)c4ccccc4)CC3)nc2-c2ccc(C)cc2)cc1 [Example 17] has pEC50 at or above 7?
// result -1

// query Given CCOC1CCN(c2nnc(-c3ccc(C)cc3)c(-c3ccc(C)cc3)n2)CC1 [Example 27] , state whether its pEC50 is at least 7.
// result 1

// query Can Cc1ccc(-c2nnc(N3CCC(OS(=O)(=O)c4ccc(C)cc4)CC3)nc2-c2ccc(C)cc2)cc1 [Example 33] be said to have pEC50 at or above 7?
// result -1

// query // inclusive: pEC50 at least 7? input: CCC(=O)OC1CCN(c2nnc(-c3ccc(C)cc3)c(-c3ccc(C)cc3)n2)CC1 [Example 15]
// result 1

// query # bool: pEC50 of Cc1ccc(-c2nnc(N3CCC(O)CC3)nc2-c2ccc(C)cc2)cc1 [Example 7] >= 7
// result -1
